experiment: Cmax in mouse brain at 5 mg/kg, ip measured after 24 hrs; assay type: ADME, organism-based; parameters: time 24 hrs, dose 5 mg/kg, route ip
Catalogue of Cmax values

[
  {
    "MOLECULE": "Fc1ccc(COC2CCN(Cc3ccc4[nH]cnc4c3)CC2)cc1F",
    "Cmax (ng/mL)": 860
  },
  {
    "MOLECULE": "Fc1cc(COC2CCN(Cc3ccc4[nH]cnc4c3)CC2)ccc1Cl",
    "Cmax (ng/mL)": 1890
  }
]

----------
Biological target: UniProt P21917
Sequence (whole entry): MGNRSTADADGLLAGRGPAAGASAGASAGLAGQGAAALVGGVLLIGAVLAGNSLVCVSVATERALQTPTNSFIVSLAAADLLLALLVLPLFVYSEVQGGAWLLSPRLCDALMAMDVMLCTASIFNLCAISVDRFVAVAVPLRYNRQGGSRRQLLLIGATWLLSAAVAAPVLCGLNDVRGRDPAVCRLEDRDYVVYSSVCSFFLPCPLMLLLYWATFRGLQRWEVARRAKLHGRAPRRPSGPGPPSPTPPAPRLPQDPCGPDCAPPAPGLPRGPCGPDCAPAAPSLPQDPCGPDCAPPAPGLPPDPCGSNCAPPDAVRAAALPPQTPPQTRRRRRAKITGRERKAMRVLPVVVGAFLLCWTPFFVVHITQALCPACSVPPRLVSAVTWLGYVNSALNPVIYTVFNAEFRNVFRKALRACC
Assay: Displacement of [3H]N-methylspiperone from D4 receptor in HEK293 cell membrane assessed as inhibition constant at 10 uM relative to control
Assay type: cell membranes
Set-up: scale not given: the % may be the effect or the level left
MEASURED ENDPOINT: Activity (%)

[
  {
    "MOLECULE": "Fc1ccc(CN2CCCC3(CCN(Cc4cc5ccc(Cl)cc5[nH]4)C3)C2)cc1F (centres undefined)",
    "EXPERIMENTAL TARGET": "UniProt P21917",
    "MEASURED ENDPOINT": "Activity",
    "VALUE": 39
  },
  {
    "MOLECULE": "Cc1cccc(CO[C@H]2CCCN(Cc3ccc4c(cnn4C)c3)C2)n1",
    "EXPERIMENTAL TARGET": "UniProt P21917",
    "MEASURED ENDPOINT": "Activity",
    "VALUE": 23
  },
  {
    "MOLECULE": "Cc1c(Cl)cccc1NC(=O)CN1CCC2(CCCN(Cc3ccc(F)c(F)c3)C2)C1 (centres undefined)",
    "EXPERIMENTAL TARGET": "UniProt P21917",
    "MEASURED ENDPOINT": "Activity",
    "VALUE": 23
  },
  {
    "MOLECULE": "Cn1cnc2cc(CN3CCC(OCc4ccc(Cl)c(F)c4)CC3)ccc21",
    "EXPERIMENTAL TARGET": "UniProt P21917",
    "MEASURED ENDPOINT": "Activity",
    "VALUE": 48
  },
  {
    "MOLECULE": "Cc1cccc(CO[C@H]2CCCN(Cc3cn4ccccc4n3)C2)n1",
    "EXPERIMENTAL TARGET": "UniProt P21917",
    "MEASURED ENDPOINT": "Activity",
    "VALUE": 23
  },
  {
    "MOLECULE": "Cc1ccccc1CO[C@H]1CCCN(Cc2ccc3c(cnn3C)c2)C1",
    "EXPERIMENTAL TARGET": "UniProt P21917",
    "MEASURED ENDPOINT": "Activity",
    "VALUE": 65
  },
  {
    "MOLECULE": "Fc1ccc(CN2CCCC23CCN(Cc2cn4ccccc4n2)C3)cc1F (centres undefined)",
    "EXPERIMENTAL TARGET": "UniProt P21917",
    "MEASURED ENDPOINT": "Activity",
    "VALUE": -0.7
  },
  {
    "MOLECULE": "Cc1cc(NC(=O)CN2CCC3(CCCN3Cc3ccc(F)c(F)c3)C2)ccc1F (centres undefined)",
    "EXPERIMENTAL TARGET": "UniProt P21917",
    "MEASURED ENDPOINT": "Activity",
    "VALUE": 14
  },
  {
    "MOLECULE": "Cc1ccccc1CO[C@H]1CCCN(Cc2cn3ccccc3n2)C1",
    "EXPERIMENTAL TARGET": "UniProt P21917",
    "MEASURED ENDPOINT": "Activity",
    "VALUE": 60
  }
]

----------
molecular target: D(4) dopamine receptor (Homo sapiens, UniProt P21917); assay: Displacement of [3H]N-methylspiperone from D4 receptor in HEK293 cell membrane; assay type: cell membranes; conditions: read-out: Ki
pKi: −log10 of the molar value.

[
  {
    "MOLECULE": "Cc1c(Cl)cccc1NC(=O)CN1CCC2(CCCN2Cc2ccc(F)c(F)c2)C1 (centres undefined)",
    "pKi": 5.77
  },
  {
    "MOLECULE": "COc1ccc(CN2CCO[C@H](COc3ccccc3)C2)cc1F",
    "pKi": 8.30
  },
  {
    "MOLECULE": "Fc1cc(COC2CCN(Cc3ccc4[nH]cnc4c3)CC2)ccc1Cl",
    "pKi": 5.94
  },
  {
    "MOLECULE": "Fc1cccc(CO[C@H]2CCCN(Cc3cn4ccccc4n3)C2)c1",
    "pKi": 5.92
  }
]

----------
Reported pKi values for the following compounds.
target: Sigma non-opioid intracellular receptor 1 (Homo sapiens, UniProt Q99720); assay: Displacement of [3H] Pentazocine from sigma 1 receptor in HEK293 cell membrane; assay type: cell membranes; settings: read-out: Ki
Sequence (Q99720 whole entry): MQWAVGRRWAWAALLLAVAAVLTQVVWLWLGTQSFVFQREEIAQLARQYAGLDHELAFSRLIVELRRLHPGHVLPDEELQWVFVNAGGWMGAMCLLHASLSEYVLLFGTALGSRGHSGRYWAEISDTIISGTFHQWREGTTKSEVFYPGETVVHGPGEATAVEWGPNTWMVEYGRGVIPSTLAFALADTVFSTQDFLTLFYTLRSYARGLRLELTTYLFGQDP
pKi: −log10 of the molar value.

[
  {
    "MOLECULE": "COc1ccc(CN2CCO[C@H](COc3ccccc3)C2)cc1F",
    "EXPERIMENTAL TARGET": "Sigma non-opioid intracellular receptor 1 (Homo sapiens, UniProt Q99720)",
    "pKi": 7.39
  },
  {
    "MOLECULE": "Fc1ccc2c(CN3CCC(F)(F)[C@H](CCc4ccccc4)C3)c[nH]c2c1",
    "EXPERIMENTAL TARGET": "Sigma non-opioid intracellular receptor 1 (Homo sapiens, UniProt Q99720)",
    "pKi": 7.28
  },
  {
    "MOLECULE": "Fc1cc(COC2CCN(Cc3cn4ccccc4n3)CC2)ccc1Cl",
    "EXPERIMENTAL TARGET": "Sigma non-opioid intracellular receptor 1 (Homo sapiens, UniProt Q99720)",
    "pKi": 8.64
  },
  {
    "MOLECULE": "Cn1ncc2cc(CN3CCO[C@H](COc4ccc(F)c(F)c4)C3)ccc21",
    "EXPERIMENTAL TARGET": "Sigma non-opioid intracellular receptor 1 (Homo sapiens, UniProt Q99720)",
    "pKi": 7.64
  }
]

----------
# Ki per record follows
target: D(1A) dopamine receptor (Homo sapiens, UniProt P21728); assay: Displacement of [3H]SCH23390 from D1 receptor in HEK293 cell membrane assessed as inhibition constant
Sequence (P21728 whole entry): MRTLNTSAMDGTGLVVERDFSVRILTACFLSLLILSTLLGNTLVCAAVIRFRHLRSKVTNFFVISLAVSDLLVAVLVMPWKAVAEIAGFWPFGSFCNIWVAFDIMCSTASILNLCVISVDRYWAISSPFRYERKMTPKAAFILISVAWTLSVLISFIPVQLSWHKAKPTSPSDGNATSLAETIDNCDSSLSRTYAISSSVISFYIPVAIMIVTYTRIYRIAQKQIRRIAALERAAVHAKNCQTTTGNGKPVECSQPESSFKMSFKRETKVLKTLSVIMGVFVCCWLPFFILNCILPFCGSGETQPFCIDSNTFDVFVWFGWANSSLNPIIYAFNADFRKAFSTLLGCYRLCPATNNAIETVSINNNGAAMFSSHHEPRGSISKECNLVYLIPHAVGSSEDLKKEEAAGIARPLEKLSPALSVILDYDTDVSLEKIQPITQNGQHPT
MEASURED ENDPOINT: Ki

[
  {
    "COMPOUND": "Cc1c(Cl)cccc1NC(=O)CN1CCC2(CCCN2Cc2ccc(F)c(F)c2)C1 (centres undefined)",
    "MEASURED ENDPOINT": "Ki",
    "VALUE": "> 10 µM"
  },
  {
    "COMPOUND": "Cc1ccccc1CO[C@H]1CCCN(Cc2ccc3c(cnn3C)c2)C1",
    "MEASURED ENDPOINT": "Ki",
    "VALUE": "> 10 µM"
  },
  {
    "COMPOUND": "Fc1ccc(CN2CCCC3(CCN(Cc4cc5ccc(Cl)cc5[nH]4)C3)C2)cc1F (centres undefined)",
    "MEASURED ENDPOINT": "Ki",
    "VALUE": "1.53 µM"
  },
  {
    "COMPOUND": "Fc1ccc(CN2CCCC23CCN(Cc2cn4ccccc4n2)C3)cc1F (centres undefined)",
    "MEASURED ENDPOINT": "Ki",
    "VALUE": "> 10 µM"
  }
]

----------
biological target: Sigma non-opioid intracellular receptor 1 (Homo sapiens, UniProt Q99720); experiment: Displacement of [3H] Pentazocine from sigma 1 receptor in HEK293 cell membrane; assay type: cell membranes; details: read-out: Ki
pKi: −log10 of the molar value.
Everything with pKi lower than 8 is Condition not met; everything else, including exactly 8, is Condition met.

[
  {
    "COMPOUND": "Fc1cc(COC2CCN(Cc3ccc4[nH]ncc4c3)CC2)ccc1Cl",
    "CLASS ASSIGNMENT": "Condition met"
  },
  {
    "COMPOUND": "Cc1c(Cl)cccc1NC(=O)CN1CCC2(CCCN(Cc3ccc(F)c(F)c3)C2)C1 (stereo unspecified)",
    "CLASS ASSIGNMENT": "Condition not met"
  },
  {
    "COMPOUND": "Fc1ccc(CN2CCCC23CCN(Cc2cc4ccc(Cl)cc4[nH]2)C3)cc1F (stereo unspecified)",
    "CLASS ASSIGNMENT": "Condition met"
  },
  {
    "COMPOUND": "Cc1cccc(CO[C@H]2CCCN(Cc3ccc4c(cnn4C)c3)C2)n1",
    "CLASS ASSIGNMENT": "Condition not met"
  },
  {
    "COMPOUND": "Fc1cc(COC2CCN(Cc3ccc4[nH]cnc4c3)CC2)ccc1Cl",
    "CLASS ASSIGNMENT": "Condition met"
  },
  {
    "COMPOUND": "FC(F)(F)c1cccc(COC2CCN(Cc3cn4ccccc4n3)CC2)c1",
    "CLASS ASSIGNMENT": "Condition met"
  },
  {
    "COMPOUND": "Cc1ccccc1CO[C@H]1CCCN(Cc2cn3ccccc3n2)C1",
    "CLASS ASSIGNMENT": "Condition not met"
  }
]
